assayTarget: AChE (Homo sapiens, UniProt P22303)
Sequence (P22303 32-614): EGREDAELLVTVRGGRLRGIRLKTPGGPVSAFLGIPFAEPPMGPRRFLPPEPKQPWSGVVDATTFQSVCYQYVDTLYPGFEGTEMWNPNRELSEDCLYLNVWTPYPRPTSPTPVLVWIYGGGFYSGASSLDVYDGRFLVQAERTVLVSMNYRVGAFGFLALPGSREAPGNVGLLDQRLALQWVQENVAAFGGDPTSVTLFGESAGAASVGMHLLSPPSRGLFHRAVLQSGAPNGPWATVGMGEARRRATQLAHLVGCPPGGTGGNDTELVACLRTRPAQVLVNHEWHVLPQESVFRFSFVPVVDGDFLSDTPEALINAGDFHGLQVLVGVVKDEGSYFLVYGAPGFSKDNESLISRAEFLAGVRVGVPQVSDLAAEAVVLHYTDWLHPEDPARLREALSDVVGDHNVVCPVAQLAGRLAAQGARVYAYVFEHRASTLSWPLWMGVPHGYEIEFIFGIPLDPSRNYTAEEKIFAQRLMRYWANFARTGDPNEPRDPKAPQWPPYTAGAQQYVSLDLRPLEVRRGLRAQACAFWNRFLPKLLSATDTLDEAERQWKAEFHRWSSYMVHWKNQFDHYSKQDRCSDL
experimentNotes: biochemical
particulars: 10^–7 M
Protocol: According to the modified Ellman approach outlined in our team’s earlier work, the AChE and BChE inhibitory activities of the obtained compounds were evaluated.[18]−[21]
Overview of reported inhibition at 0.1 µM across a group of compounds:
assayEndpoint: inhibition at 0.1 µM (%)

                          structureassmiles                          assaytarget  recordednumber
0  COc1ccc2c(c1)C(=O)/C(=C/c1ccc(NC(=O)CN(C)CCN(C)C)cc1)C2  AChE (Homo sapiens, UniProt P22303)            42.9
1  COc1ccc2c(c1)C/C(=C\c1ccc(NC(=O)CN(C)CCN(C)C)cc1)C2=O  AChE (Homo sapiens, UniProt P22303)            41.2
2  COc1ccc2c(c1)C/C(=C\c1ccc(NC(=O)CN3CCN(CCN(C)C)CC3)cc1)C2=O  AChE (Homo sapiens, UniProt P22303)            63.4
3  COc1ccc2c(c1)C(=O)/C(=C/c1ccc(NC(=O)CN3CCN(CCCO)CC3)cc1)C2  AChE (Homo sapiens, UniProt P22303)            68.3
4  COc1cc2c(cc1OC)C(=O)/C(=C/c1ccc(NC(=O)CN3CCN(CCCO)CC3)cc1)C2  AChE (Homo sapiens, UniProt P22303)            70.6
5  CCCN(C)CC(=O)Nc1ccc(/C=C2\Cc3cc(OC)ccc3C2=O)cc1  AChE (Homo sapiens, UniProt P22303)              72
6  COc1cc2c(cc1OC)C(=O)/C(=C/c1ccc(NC(=O)CN3CCN(CCCN(C)C)CC3)cc1)C2  AChE (Homo sapiens, UniProt P22303)            41.2
7  COc1ccc2c(c1)C/C(=C\c1ccc(NC(=O)CN(C)CCCN(C)C)cc1)C2=O  AChE (Homo sapiens, UniProt P22303)            61.5
8  COc1cc2c(cc1OC)C(=O)/C(=C/c1ccc(NC(=O)CN(C)CCN(C)C)cc1)C2  AChE (Homo sapiens, UniProt P22303)            38.2

====

assayTarget: UniProt:P22303
experimentNotes: biochemical
particulars: 10^–4 M
Decision: inhibition at 100 µM compared against 50%; not below it gives true, below it gives false.

>>> print(df.to_string())
                                    molecule  discretelabel
 0  C#CCN1CCN(CC(=O)Nc2ccc(/C=C3\Cc4cc(OC)ccc4C3=O)cc2)CC1          false
 1  COc1cc2c(cc1OC)C(=O)/C(=C/c1ccc(NC(=O)CN3CCN(CCO)CC3)cc1)C2          false
 2  COc1cc2c(cc1OC)C(=O)/C(=C/c1ccc(NC(=O)CN3CCN(CCCO)CC3)cc1)C2           true
 3  CCCN(C)CC(=O)Nc1ccc(/C=C2\Cc3ccc(OC)cc3C2=O)cc1           true
 4  COc1ccc2c(c1)C/C(=C\c1ccc(NC(=O)CN3CCN(CCCO)CC3)cc1)C2=O           true
 5  COc1ccc2c(c1)C/C(=C\c1ccc(NC(=O)CN(C)CCN(C)C)cc1)C2=O           true
 6  CCN1CCN(CC(=O)Nc2ccc(/C=C3\Cc4cc(OC)c(OC)cc4C3=O)cc2)CC1          false
 7  COc1ccc2c(c1)C(=O)/C(=C/c1ccc(NC(=O)CN(C)CCN(C)C)cc1)C2           true
 8  COCCN1CCN(CC(=O)Nc2ccc(/C=C3\Cc4cc(OC)ccc4C3=O)cc2)CC1          false
 9  COc1cc2c(cc1OC)C(=O)/C(=C/c1ccc(NC(=O)CN(C)CCCN(C)C)cc1)C2           true
10  COc1ccc2c(c1)C(=O)/C(=C/c1ccc(NC(=O)CN3CCN(CCCO)CC3)cc1)C2           true
11  COc1ccc2c(c1)C/C(=C\c1ccc(NC(=O)CN(C)CCCN(C)C)cc1)C2=O           true
12  C#CCN(C)CC(=O)Nc1ccc(/C=C2\Cc3ccc(OC)cc3C2=O)cc1          false
13  CCCN(C)CC(=O)Nc1ccc(/C=C2\Cc3cc(OC)ccc3C2=O)cc1           true
14  COc1cc2c(cc1OC)C(=O)/C(=C/c1ccc(NC(=O)CN3CCN(C)CC3)cc1)C2          false
15  CCN(CC)CCN(CC)CC(=O)Nc1ccc(/C=C2\Cc3cc(OC)ccc3C2=O)cc1          false
16  COc1ccc2c(c1)C(=O)/C(=C/c1ccc(NC(=O)CN3CCN(CCO)CC3)cc1)C2          false
17  C=CCN1CCN(CC(=O)Nc2ccc(/C=C3\Cc4ccc(OC)cc4C3=O)cc2)CC1          false
18  COc1ccc2c(c1)C/C(=C\c1ccc(NC(=O)CN3CCN(C)CC3)cc1)C2=O [D1]          false
19  COc1ccc2c(c1)C/C(=C\c1ccc(NC(=O)CN3CCN(CCO)CC3)cc1)C2=O          false
20  COc1ccc2c(c1)C/C(=C\c1ccc(NC(=O)CN3CCN(CCN(C)C)CC3)cc1)C2=O           true
21  C#CCN(C)CC(=O)Nc1ccc(/C=C2\Cc3cc(OC)c(OC)cc3C2=O)cc1          false
22  CCN(CC)CCN(CC)CC(=O)Nc1ccc(/C=C2\Cc3cc(OC)c(OC)cc3C2=O)cc1          false
23  COc1ccc2c(c1)C(=O)/C(=C/c1ccc(NC(=O)CN(C)CCCN(C)C)cc1)C2           true
24  COc1cc2c(cc1OC)C(=O)/C(=C/c1ccc(NC(=O)CN3CCN(CCCN(C)C)CC3)cc1)C2           true
25  C=CCN1CCN(CC(=O)Nc2ccc(/C=C3\Cc4cc(OC)c(OC)cc4C3=O)cc2)CC1          false
26  CCN1CCN(CC(=O)Nc2ccc(/C=C3\Cc4cc(OC)ccc4C3=O)cc2)CC1          false
27  COc1ccc2c(c1)C(=O)/C(=C/c1ccc(NC(=O)CN3CCN(CCCN(C)C)CC3)cc1)C2           true
28  C=CCN1CCN(CC(=O)Nc2ccc(/C=C3\Cc4cc(OC)ccc4C3=O)cc2)CC1          false
29  C#CCN(C)CC(=O)Nc1ccc(/C=C2\Cc3cc(OC)ccc3C2=O)cc1          false
30  CCN1CCN(CC(=O)Nc2ccc(/C=C3\Cc4ccc(OC)cc4C3=O)cc2)CC1          false
31  COc1ccc2c(c1)C/C(=C\c1ccc(NC(=O)CN3CCN(CCCN(C)C)CC3)cc1)C2=O           true
32  COCCN1CCN(CC(=O)Nc2ccc(/C=C3\Cc4ccc(OC)cc4C3=O)cc2)CC1          false
